# targetOfAssay: Lck (Homo sapiens, UniProt P06239)
# Construct: Kinases are expressed as either kinase domains or full length constructs; made in house
# Sequence (P06239 whole entry, species assumed, the tested form may be a part): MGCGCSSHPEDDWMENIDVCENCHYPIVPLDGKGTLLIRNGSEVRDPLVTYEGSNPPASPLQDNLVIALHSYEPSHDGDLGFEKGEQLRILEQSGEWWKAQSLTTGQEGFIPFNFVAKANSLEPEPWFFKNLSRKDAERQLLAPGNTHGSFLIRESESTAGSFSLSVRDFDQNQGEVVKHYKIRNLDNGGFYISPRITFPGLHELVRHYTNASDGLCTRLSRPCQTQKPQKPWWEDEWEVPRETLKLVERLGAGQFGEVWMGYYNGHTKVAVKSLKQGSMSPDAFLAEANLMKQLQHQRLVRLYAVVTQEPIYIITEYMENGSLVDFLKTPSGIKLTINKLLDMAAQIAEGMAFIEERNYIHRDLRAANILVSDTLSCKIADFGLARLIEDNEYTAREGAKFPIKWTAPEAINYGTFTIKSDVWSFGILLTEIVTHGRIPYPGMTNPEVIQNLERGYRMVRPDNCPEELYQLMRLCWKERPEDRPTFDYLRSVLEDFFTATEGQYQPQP
# experimentNotes: Kinase inhibition assay (33P transfer), Lck
# Assay type: biochemical
# testParameters: Table 3; read-out: Lck-1
Below, each of the molecules is paired with its reported IC50 value.

What does the data say about its IC50? Entry: COc1cc(Nc2ncnc(Nc3ccc4c(ccn4Cc4ccccc4)c3)n2)cc(OC)c1OC [Compound 178]
0.829 to 4.97 µM

----------
Parameter IC50, tested on Flt-1 (Homo sapiens, UniProt P17948), listed per item.
Sequence (P17948 27-1338, species assumed): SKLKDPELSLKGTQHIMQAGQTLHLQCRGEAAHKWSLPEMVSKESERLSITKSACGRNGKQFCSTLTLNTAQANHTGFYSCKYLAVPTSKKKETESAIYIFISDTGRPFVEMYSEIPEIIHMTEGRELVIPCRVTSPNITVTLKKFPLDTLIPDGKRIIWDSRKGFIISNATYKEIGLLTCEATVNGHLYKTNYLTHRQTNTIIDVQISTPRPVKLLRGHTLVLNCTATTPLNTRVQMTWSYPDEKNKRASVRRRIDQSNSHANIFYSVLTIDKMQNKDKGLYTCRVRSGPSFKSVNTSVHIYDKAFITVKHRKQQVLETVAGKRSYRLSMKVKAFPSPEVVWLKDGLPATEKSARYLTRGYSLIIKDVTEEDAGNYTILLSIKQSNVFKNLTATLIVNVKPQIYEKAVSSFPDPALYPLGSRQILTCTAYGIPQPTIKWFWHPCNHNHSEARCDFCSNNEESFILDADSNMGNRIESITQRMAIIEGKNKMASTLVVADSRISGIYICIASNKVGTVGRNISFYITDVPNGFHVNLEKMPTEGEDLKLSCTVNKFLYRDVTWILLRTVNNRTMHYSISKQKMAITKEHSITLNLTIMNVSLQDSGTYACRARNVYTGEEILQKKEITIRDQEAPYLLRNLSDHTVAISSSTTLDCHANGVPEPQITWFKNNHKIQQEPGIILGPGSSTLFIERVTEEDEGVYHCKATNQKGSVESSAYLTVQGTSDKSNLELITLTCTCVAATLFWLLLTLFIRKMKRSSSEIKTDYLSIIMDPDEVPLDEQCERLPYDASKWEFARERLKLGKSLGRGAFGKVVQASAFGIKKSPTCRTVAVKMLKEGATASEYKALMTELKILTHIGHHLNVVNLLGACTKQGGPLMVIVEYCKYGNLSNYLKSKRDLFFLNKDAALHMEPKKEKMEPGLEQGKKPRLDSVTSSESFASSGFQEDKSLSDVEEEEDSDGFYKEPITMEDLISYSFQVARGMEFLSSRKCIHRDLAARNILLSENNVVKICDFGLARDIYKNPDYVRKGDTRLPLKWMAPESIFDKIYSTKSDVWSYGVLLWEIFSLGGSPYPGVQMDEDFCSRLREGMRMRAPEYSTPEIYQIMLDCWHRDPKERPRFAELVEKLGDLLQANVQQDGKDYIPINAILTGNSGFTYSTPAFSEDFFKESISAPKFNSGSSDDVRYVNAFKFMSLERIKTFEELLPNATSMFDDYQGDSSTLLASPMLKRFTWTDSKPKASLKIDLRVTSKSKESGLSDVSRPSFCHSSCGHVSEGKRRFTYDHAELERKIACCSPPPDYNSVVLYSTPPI

In the examples that follow, each entry is paired with its recorded IC50.
{"columns": ["compound", "result"],
 "data": [
  ["C=CCN(c1ccc(Cl)cc1)c1ncnc(Nc2cc(OC)c(OC)c(OC)c2)n1", "0.935 to 5.61 µM"],
  ["COc1cc(Nc2ncnc(-n3c(Nc4cccc(C)c4)nc4ccccc43)n2)cc(OC)c1OC", "< 0.827 µM"],
  ["COc1cc(Nc2ncnc(-n3c(N)nc4ccccc43)n2)cc(OC)c1OCCN1CCOCC1", "< 0.812 µM"],
  ["COc1cc(Nc2ncnc(N(c3ccccc3)c3nc4ccccc4[nH]3)n2)cc(OC)c1OC", "0.852 to 5.11 µM"],
  ["OCc1cccc(Nc2ncnc(Nc3cc(-c4ccco4)n[nH]3)n2)c1", "< 1.14 µM"]
]}

What does the data say about its IC50? Entry: `COc1ccccc1Nc1ncnc(Nc2cc(OC)c(OC)c(OC)c2)n1`
1.04 to 6.26 µM

Quick one: `COc1cc(Nc2ncnc(Nc3cccc4ccccc34)n2)cc(OCCN2CCOCC2)c1OC`
0.796 to 4.78 µM

Quick one: `COc1cc(Nc2ncnc(N3CCc4ccccc43)n2)cc(OC)c1OC`
< 1.05 µM

Quick one: `COc1ccc(Nc2ncnc(Nc3cccc(C)c3)n2)cc1OC`
> 13.3 µM

Quick one: `C=CCNc1cc(-c2ncnc(Nc3cc(OC)c(OC)c(OC)c3)n2)ccn1`
> 11.4 µM

The measurements presented in this section are drawn from patent US7074789B2.
